# Tested on: NCI-H460 lung
# measurement_protocol: NCI-60 one-dose screen, 48 h
# conditions: 10 µM unless noted
This is part of a sample that, as a whole, favours compounds with a hit. Of some 83,000 tested, about 20% had one in any assay. Calls of active or inactive are those of the source. How the source made its calls: active means growth percent below 10; inactive means the rest.
Classes used: active, inactive

{"structure_string": "CN1CCN(c2ccc(Nc3nc(NCCNC(=O)c4ccc(F)cc4)c4sccc4n3)cc2)CC1", "measured_target": "NCI-H460 lung", "class_label": "inactive"}
{"structure_string": "O=C1C(N2CCN(c3ccccc3)CC2)=C(Cl)C(=O)c2ncccc21", "measured_target": "NCI-H460 lung", "class_label": "inactive"}
{"structure_string": "CCOC(=O)C(=O)Nc1ccc2c(ccn2C(=O)c2cccc(F)c2)c1", "measured_target": "NCI-H460 lung", "class_label": "inactive"}
{"structure_string": "Cc1cc(=O)oc2cc(OCCCOc3ccc(/C=C/C(=O)Nc4ccc(Br)cc4)cc3)ccc12", "measured_target": "NCI-H460 lung", "class_label": "active"}
{"structure_string": "Cc1ccc2c(n1)C(=O)C(Cl)=C(Nc1ccc(C#N)cc1)C2=O", "measured_target": "NCI-H460 lung", "class_label": "inactive"}

---

# System: OVCAR-5 ovarian
# measurement_protocol: NCI-60 one-dose screen, 48 h (100 = growth as untreated, 0 = no growth, -100 = all killed)
# conditions: 10 µM unless noted
About 83,000 compounds went through this panel and 20% of them were active in at least one assay; those are over-represented in the sample as a whole.
Please mark true (1) if the recorded growth is equal to or greater than 90%, and false (0) if it falls below.

{"molecule": "O=C1Nc2ccccc2/C1=C/c1ccc(OCC(=O)c2ccccc2)cc1", "class_label": "true (1)"}
{"molecule": "O=C(CSc1nnc(-c2cccs2)n1-c1ccccc1)Nc1ccccc1F", "class_label": "true (1)"}
{"molecule": "O=C(/C=C/C=C/c1csc(Br)n1)NO", "class_label": "true (1)"}
{"molecule": "CN1CCN(c2ccc(Nc3nc(NCCCNS(=O)(=O)c4ccccc4)c4sccc4n3)cc2)CC1", "class_label": "false (0)"}
{"molecule": "CCNCCOc1ccc(/C(=C(/CC)c2ccc(Cl)cc2)c2ccc(OCCCN(C)C)cc2)cc1", "class_label": "false (0)"}
{"molecule": "COc1ccc2c(c1)c(-c1nc(N)nnc1-c1c[nH]c3ccccc13)cn2C", "class_label": "false (0)"}
{"molecule": "Clc1ccc2[nH]cc(-c3nn4cc(-c5cccnc5)nc4s3)c2c1", "class_label": "true (1)"}
{"molecule": "COc1cc(C(=O)c2cc(C(C)=O)c3cccc(C)n23)cc(OC)c1OC", "class_label": "false (0)"}
{"molecule": "Cc1ccc2c(n1)C(=O)C(Cl)=C(Nc1cccc(C)c1C)C2=O", "class_label": "false (0)"}
{"molecule": "CC(Nc1c(C#N)cnc2ccc(-c3cncc(-c4n[nH]c(=O)o4)c3)cc12)c1ccccc1 (stereo unspecified)", "class_label": "false (0)"}
{"molecule": "N#Cc1c(-c2cccs2)cc(-c2cnccn2)nc1SCC(=O)N/N=C/c1ccccc1", "class_label": "false (0)"}
{"molecule": "CCc1cc2c(cc1Cl)nc1c(=O)[nH]c(=O)nc-1n2CCOCC(C)(C)C", "class_label": "true (1)"}
{"molecule": "O=C(CSc1nc2ccccc2c(=O)n1-c1ccccc1)Nc1ccc(S(=O)(=O)Nc2nccs2)cc1", "class_label": "false (0)"}
{"molecule": "N#C/C(=C\\c1ccc(-c2ccc(Cl)cc2)o1)C(=O)Nc1ncc(Cc2ccc(Br)cc2)s1", "class_label": "false (0)"}

---

# System: HCT-15 colon
# measurement_protocol: NCI-60 one-dose screen, 48 h
# conditions: 10 µM unless noted
The panel holds about 83,000 compounds, 20% with a hit somewhere; the sample as a whole holds those more often. Calls of active or inactive are those of the source. The calls were made as follows: active = growth percent below 10; inactive = the rest.
Labels: TRUE = active, FALSE = inactive

{"structure_string": "NS(=O)(=O)c1nnc(/N=C/c2c(O)[nH]c3ccccc23)s1", "class_label": "FALSE"}
{"structure_string": "O=C(CCCCCCNC(=O)C(O)(O)C(F)(F)F)Nc1ncc(-c2ccccc2)s1", "class_label": "TRUE"}
{"structure_string": "CCOC(=O)c1ccccc1NC1=C(Cl)C(=O)c2nc(C)ccc2C1=O", "class_label": "FALSE"}
{"structure_string": "CN1CCC[C@]2(C)[C@H]3CC[C@@H]4[C@@H]5[C@H]6OC[C@@]5(CCC6(C)C)CC[C@@]4(C)[C@]3(C)CC[C@H]2C1(C)C", "class_label": "FALSE"}
{"structure_string": "O=C1Nc2ccccc2/C1=N\\c1nnc(-c2ccccc2)o1", "class_label": "FALSE"}
{"structure_string": "C[C@]12CC[C@H]3[C@@H](CC=C4C[C@@H](O)CC[C@@]43C)[C@@H]1CC[C@@H]2[C@](C)(O)CCc1cccnc1", "class_label": "FALSE"}

---

# Tested on: NCI/ADR-RES ovarian
# measurement_protocol: NCI-60 one-dose screen, 48 h (100 = growth as untreated, 0 = no growth, -100 = all killed)
# conditions: 10 µM unless noted
The panel holds about 83,000 compounds, 20% with a hit somewhere; the sample as a whole holds those more often. Activity calls are given as the source filed them. The calls were made as follows: active = growth percent below 10; inactive = the rest.
A collection of compounds and their measured growth

{"compound": "CC(C)[C@H]1c2[nH]c3ccccc3c2C[C@H]2C(=O)N(CCCCCCC(=O)NO)CC(=O)N12", "growth": "95.3% (inactive)"}
{"compound": "C#Cc1cc(OC)c(C(=O)Nc2ccc(F)cc2C(=O)Nc2cccc(S(=O)(=O)C(F)(F)F)c2)cn1", "growth": "-29.1% (active)"}
{"compound": "O=S(=O)(NCCCNc1nccc(-c2[nH]c(-c3ccccc3)nc2-c2ccc(F)c(O)c2)n1)c1ccc(C(F)(F)F)cc1", "growth": "89% (inactive)"}
{"compound": "O=C(Nc1cccc(Cl)c1)Nc1nc2cc([N+](=O)[O-])ccc2o1", "growth": "22.6% (inactive)"}
{"compound": "CCOC(=O)c1cccc(NC2=C(Cl)C(=O)c3nc(C)ccc3C2=O)c1", "growth": "94.6% (inactive)"}
{"compound": "CCCN1C=C/C(=C\\C(=O)n2ccc3ccccc32)c2ccccc21", "growth": "88.7% (inactive)"}
{"compound": "OCC(Nc1ncnc2ccc(-c3cnc4cnccn34)cc12)c1ccccc1 (centres undefined)", "growth": "90.3% (inactive)"}
{"compound": "NC(=S)n1c(=O)n(-c2cccc(C(F)(F)F)c2)c(=O)c2cc(-c3ccc(F)cc3F)ccc21", "growth": "4.95% (active)"}
{"compound": "C#C[C@]1(O)CC[C@H]2[C@@H]3CC=C4c5sc(Nc6cc(C)cc(C)c6)nc5CC[C@]4(C)[C@H]3CC[C@@]21C", "growth": "47.7% (inactive)"}
{"compound": "O=c1nc(Nc2ccc([N+](=O)[O-])cc2O)sc2ccccc12", "growth": "22.5% (inactive)"}
{"compound": "O=S(=O)(Oc1ccc(-c2cn3ccsc3n2)cc1)c1cccc(C(F)(F)F)c1", "growth": "108% (inactive)"}
{"compound": "CC1(C)CC[C@]2(C(=O)NCCCCCCN(CCCN)CCCN)CC[C@]3(C)C(=CC[C@@H]4[C@@]5(C)CC[C@H](O)C(C)(C)[C@@H]5CC[C@]43C)[C@@H]2C1", "growth": "98.8% (inactive)"}
{"compound": "CC(=O)N1N=C(c2cc3ccccc3oc2=O)CC1c1cn(-c2ccccc2)nc1-c1ccc(C)cc1 (centres undefined)", "growth": "96.1% (inactive)"}
{"compound": "O=C(CSc1nnc(-c2cccs2)n1-c1ccccc1)Nc1ccccc1F", "growth": "49.2% (inactive)"}
{"compound": "c1ccc(-c2cn3c(-c4c[nH]c5ccccc45)csc3n2)cc1", "growth": "91.8% (inactive)"}
{"compound": "NS(=O)(=O)c1ccc(Nc2nc(N/N=C/C=C/c3ccccc3)nc(Nc3ccccc3)n2)cc1", "growth": "91.1% (inactive)"}
{"compound": "CCc1cc2c(cc1Cl)nc1c(=O)[nH]c(=O)nc-1n2CCOCC(C)C", "growth": "74.1% (inactive)"}
{"compound": "COc1cc(C(=O)c2cc(C(C)=O)c3cccc(C)n23)cc(OC)c1OC", "growth": "22.1% (inactive)"}
{"compound": "CCCCOc1ccc(S(=O)(=O)N2CCN(c3nc(C)cc(N4CCOCC4)n3)CC2)cc1", "growth": "25.4% (inactive)"}

---

# Test system: BT-549 breast
# measurement_protocol: NCI-60 one-dose screen, 48 h (100 = growth as untreated, 0 = no growth, -100 = all killed)
# conditions: 10 µM unless noted
This is part of a sample that, as a whole, favours compounds with a hit. Of some 83,000 tested, about 20% had one in any assay.

{"compound": "CN(C)CCNc1ccc2ncc(C#Cc3cncc(C(=O)Nc4ccc(CN5CCN(C)CC5)c(C(F)(F)F)c4)c3)n2n1", "measured_target": "BT-549 breast", "growth / %": -8.5}
{"compound": "O=C(CCCCCCN1CC(=O)N2[C@@H](C3CC3)c3[nH]c4ccccc4c3C[C@H]2C1=O)NO", "measured_target": "BT-549 breast", "growth / %": 104}
{"compound": "COc1ccc(/C(=N\\NC(N)=S)c2ccc(Cl)cc2)cc1OC", "measured_target": "BT-549 breast", "growth / %": 14.2}
{"compound": "CC(C)NC(=O)c1cc(-c2ccc(NC(=O)Nc3ccc(F)c(C(F)(F)F)c3)cc2)nc2cccnc12", "measured_target": "BT-549 breast", "growth / %": 100}
{"compound": "COC(=O)c1ccc(NC2=C(Cl)C(=O)c3nc(C)ccc3C2=O)cc1", "measured_target": "BT-549 breast", "growth / %": 99}
{"compound": "O=C(Nc1ccc(Cl)c(C(F)(F)F)c1)Nc1ccc2oc(=O)ccc2c1", "measured_target": "BT-549 breast", "growth / %": 78.7}
{"compound": "CC(C)[C@H]1c2[nH]c3ccccc3c2C[C@H]2C(=O)N(CCCCCCC(=O)NO)CC(=O)N12", "measured_target": "BT-549 breast", "growth / %": 101}
{"compound": "CN1CCN(Cc2ccc(NC(=O)c3cncc(C#Cc4cnc5ccc(O[C@@H]6CCOC6)nn45)c3)cc2C(F)(F)F)CC1", "measured_target": "BT-549 breast", "growth / %": -81.9}
{"compound": "Brc1cccc(-c2cc(-c3cnc4c(c3)OCCO4)n[nH]2)c1", "measured_target": "BT-549 breast", "growth / %": 67.3}
{"compound": "COC(=O)c1cccc(NC2=C(Cl)C(=O)c3nc(C)ccc3C2=O)c1", "measured_target": "BT-549 breast", "growth / %": 125}
{"compound": "O=C1CSC(c2cn(-c3ccccc3)nc2-c2ccc(Cl)cc2)N1c1ccccc1 (centres undefined)", "measured_target": "BT-549 breast", "growth / %": 109}
{"compound": "CCCN1C=C/C(=C\\C(=O)n2ccc3ccccc32)c2ccccc21", "measured_target": "BT-549 breast", "growth / %": 103}
{"compound": "Clc1ccc2c(N/N=C/c3c[nH]c4ccccc34)ccnc2c1", "measured_target": "BT-549 breast", "growth / %": -89.1}
{"compound": "C#C[C@]1(O)CC[C@H]2[C@@H]3CC=C4c5sc(Nc6cccc(F)c6)nc5CC[C@]4(C)[C@H]3CC[C@@]21C", "measured_target": "BT-549 breast", "growth / %": 19.4}
{"compound": "O=C1/C(=C/c2cc(F)cc(F)c2)Cc2cc3c(cc21)OCO3", "measured_target": "BT-549 breast", "growth / %": 35.4}
{"compound": "CC(C)Sc1nc(-c2ccccc2)c(C#N)c(N2CCOCC2)n1", "measured_target": "BT-549 breast", "growth / %": 111}
{"compound": "COc1ccc([C@@H]2C(=O)N(c3cc(OC)c(OC)c(OC)c3)[C@H]2c2ccc(OC)c(O)c2)cc1", "measured_target": "BT-549 breast", "growth / %": -30.1}
{"compound": "Cc1ccccc1N1CCN(C2=C(Cl)C(=O)c3ncccc3C2=O)CC1", "measured_target": "BT-549 breast", "growth / %": 99.1}
{"compound": "CN1CCN(Cc2ccc(NC(=O)c3cncc(C#Cc4cnc(N)nc4)c3)cc2C(F)(F)F)CC1", "measured_target": "BT-549 breast", "growth / %": 38.5}
